Exercise: for every item that follows, state its recorded EC50.
- systemUnderTest: cynomolgus monkey PCSK9 (cynomolgus monkey, UniProt A0A7N9D9N8 150-747)
- testMethodNotes: FRET, competitor EGFA peptide
One number for each entry, in nM.

The following binders have reported results that may help.
[[record]]
binder = "2382C05 (designed binder, Anti-PCSK9 Adnectin, His6-tagged) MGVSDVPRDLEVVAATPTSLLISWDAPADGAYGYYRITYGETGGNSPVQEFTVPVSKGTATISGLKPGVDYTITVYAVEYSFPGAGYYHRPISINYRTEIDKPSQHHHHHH"
unitspec = "nM"
observedvalue = 27.2

[[record]]
binder = "2382H10 (designed binder, Anti-PCSK9 Adnectin, His6-tagged) MGVSDVPRDLEVVAATPTSLLISWDAPAGGYGYYRITYGETGGNSPVQEFTVPVSKGTATISGLKPGVDYTITVYAVEFDFPGSGYYHRPISINYRTEIDKPSQHHHHHH"
unitspec = "nM"
observedvalue = 18.2


Now for the binder whose EC50 we want.
query: # get_value(readout='EC50', item= 2011H05 (designed binder, Anti-PCSK9 Adnectin, His6-tagged; also called ATI001091) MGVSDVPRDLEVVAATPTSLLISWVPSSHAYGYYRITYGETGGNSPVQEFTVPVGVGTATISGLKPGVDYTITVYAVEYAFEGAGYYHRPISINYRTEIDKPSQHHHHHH )
result: 17.2
